Data origin: ChEMBL document CHEMBL3352362

target: Polymerase basic protein 2 (Influenza A virus (strain A/Puerto Rico/8/1934 H1N1), UniProt P03428); assay: Binding affinity to influenza A virus (A/Puerto Rico/8/1934(H1N1)) PB2 by competition binding fluorescence polarization (FP) assay
Sequence (P03428 whole entry): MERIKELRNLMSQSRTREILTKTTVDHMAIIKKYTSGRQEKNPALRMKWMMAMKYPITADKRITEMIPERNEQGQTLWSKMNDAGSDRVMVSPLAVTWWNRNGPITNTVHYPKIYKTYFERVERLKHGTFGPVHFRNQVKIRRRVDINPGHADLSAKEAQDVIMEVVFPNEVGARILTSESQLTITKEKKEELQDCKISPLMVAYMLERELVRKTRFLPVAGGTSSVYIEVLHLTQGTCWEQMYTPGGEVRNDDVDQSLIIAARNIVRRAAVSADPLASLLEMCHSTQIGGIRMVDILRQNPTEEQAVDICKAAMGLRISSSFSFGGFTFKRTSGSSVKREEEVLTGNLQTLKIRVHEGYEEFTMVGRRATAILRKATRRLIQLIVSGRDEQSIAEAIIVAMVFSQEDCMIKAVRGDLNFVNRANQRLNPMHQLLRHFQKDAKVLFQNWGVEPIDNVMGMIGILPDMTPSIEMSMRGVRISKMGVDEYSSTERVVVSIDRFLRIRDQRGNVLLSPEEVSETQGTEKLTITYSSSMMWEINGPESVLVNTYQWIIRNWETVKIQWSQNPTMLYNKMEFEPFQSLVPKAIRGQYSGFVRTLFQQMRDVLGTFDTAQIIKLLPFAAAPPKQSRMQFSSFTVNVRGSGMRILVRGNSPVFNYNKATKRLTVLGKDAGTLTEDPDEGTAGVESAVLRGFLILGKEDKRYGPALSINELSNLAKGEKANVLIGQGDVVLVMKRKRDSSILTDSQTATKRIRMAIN
assayReadout: pKd
Scale: negative log10 of molar concentration, which is what pKd denotes.

CC(=O)N[C@@H]1CCC[C@H](Nc2nc(-c3c[nH]c4ncc(Cl)cc34)ncc2F)C1 | 7.15
COCC(=O)N[C@@H]1CCC[C@H](Nc2nc(-c3c[nH]c4ncc(Cl)cc34)ncc2F)C1 | 7.15
COCC(=O)N[C@@H]1CCC[C@H](Nc2nc(-c3c[nH]c4ncc(F)cc34)ncc2F)C1 | 6.70
NC(=O)[C@H]1CCCC[C@@H]1Nc1nc(-c2c[nH]c3ncc(Cl)cc23)ncc1F (racemic) | 7.52

Then there is this compound:
Data point: `Fc1cnc(-c2c[nH]c3ncc(Cl)cc23)nc1NC1CCCCC1` ; pKd = 6.52
